# methodNotes: Serum carnitine levels in young mice fed L-carnitine
# Type: in vivo, mouse (BALB/c)
# conditionsUsed: mouse, po, 50 mg/kg/day, 50 mg/kg/day oral, read-out: Serum Carnitine, Free
measurementType: concentration at 2190 h (µM)
The answer is to be given in µM; state only the numeric part.

The recorded concentration at 2190 h for entry C[N+](C)(C)C[C@H](O)CC(=O)[O-] [L-carnitine] equals 60.2

* * *

# methodNotes: Serum carnitine at 12 weeks in adult mice fed L-carnitine, acetyl carnitine or γ-butyrobetaine
# Design: species or system mouse (BALB/c male)
# conditionsUsed: mouse, in vivo, po, 50 mg/kg/day, Serum carnitine, Free
measurementType: concentration at 2016 h (µM)
The answer is to be given in µM; state only the numeric part.

- C[N+](C)(C)CCCC(=O)[O-] [γ-butyrobetaine, 4-trimethylamino butyrate]: 40.7

Now look at this one.
The recorded concentration at 2016 h for entry C[N+](C)(C)C[C@H](O)CC(=O)[O-] [L-carnitine] equals 52.1

* * *

# methodNotes: Serum carnitine after oral L-carnitine, double-blind study in patients over 60 (Example 5)
# Assay type: in vivo, human
# conditionsUsed: human, serum, po, 2 g/day, individual subjects 010-019, 2 g/day oral, 8 weeks; read-out: Serum carnitine, Free
# Experimental: The present invention is further explained by the following examples which should not be construed by way of limiting the scope of the present invention. In the following examples, serum carnitine levels were determined by the method of R. Parvin et al., Anal. Biochem., vol. 79 (1979) pp. 190-201. Serum IGF-1 concentrations were measured by immunoradiometric assay, for example, by IRMA Kit available from Diagnostic Systems Laboratories, Inc., Webster, Texas. […]
measurementType: concentration at 1344 h (µM)
The answer is to be given in µM; state only the numeric part.

The recorded concentration at 1344 h for entry C[N+](C)(C)C[C@H](O)CC(=O)[O-] [L-carnitine] equals 65.4

* * *

# methodNotes: Serum carnitine at 12 weeks in adult mice fed L-carnitine, acetyl carnitine or γ-butyrobetaine
# Set-up: species or system mouse (BALB/c male)
# conditionsUsed: mouse, in vivo, po, 100 mg/kg/day, Serum carnitine, Total
# Procedure: The present invention is further explained by the following examples which should not be construed by way of limiting the scope of the present invention. In the following examples, serum carnitine levels were determined by the method of R. Parvin et al., Anal. Biochem., vol. 79 (1979) pp. 190-201. Serum IGF-1 concentrations were measured by immunoradiometric assay, for example, by IRMA Kit available from Diagnostic Systems Laboratories, Inc., Webster, Texas. […]
Each entry below carries its recorded concentration at 2016 h.
The answer is to be given in µM; state only the numeric part.

• C[N+](C)(C)CCCC(=O)[O-] [γ-butyrobetaine, 4-trimethylamino butyrate] = 58.5

Now look at this one.
The recorded concentration at 2016 h for entry "C[N+](C)(C)C[C@H](O)CC(=O)[O-]" equals 59.5

* * *

# methodNotes: Serum carnitine after oral L-carnitine, double-blind study in patients over 60 (Example 5)
# Assay type: in vivo, human
# conditionsUsed: human, serum, po, 2 g/day, treatment group average, twelve weeks; read-out: average total carnitine
measurementType: concentration at 2016 h (µM)
The answer is to be given in µM; state only the numeric part.

The recorded concentration at 2016 h for entry "C[N+](C)(C)C[C@H](O)CC(=O)[O-]" equals 81.5

* * *

# methodNotes: Serum carnitine after oral L-carnitine, double-blind study in patients over 60 (Example 5)
# Type: in vivo, human
# conditionsUsed: human, serum, po, 2 g/day, individual subjects 010-019, 2 g/day oral, 12 weeks; read-out: Serum carnitine, Free
# Description: The present invention is further explained by the following examples which should not be construed by way of limiting the scope of the present invention. In the following examples, serum carnitine levels were determined by the method of R. Parvin et al., Anal. Biochem., vol. 79 (1979) pp. 190-201. Serum IGF-1 concentrations were measured by immunoradiometric assay, for example, by IRMA Kit available from Diagnostic Systems Laboratories, Inc., Webster, Texas. […]
measurementType: concentration at 2016 h
Your answer should be a number followed by the unit of measure.

The recorded concentration at 2016 h for entry C[N+](C)(C)C[C@H](O)CC(=O)[O-] [L-carnitine] equals 72.6 µM

* * *

# methodNotes: Serum carnitine at 12 weeks in adult mice fed L-carnitine, acetyl carnitine or γ-butyrobetaine
# Parameters: species or system mouse (BALB/c male)
# conditionsUsed: mouse, in vivo, po, 100 mg/kg/day, 12 wks; read-out: Serum carnitine, Free
measurementType: concentration at 2016 h (µM)
The answer is to be given in µM; state only the numeric part.

The recorded concentration at 2016 h for entry CC(=O)O[C@H](CC(=O)[O-])C[N+](C)(C)C [acetyl L-carnitine, acetylcarnitine, reference compound] equals 52.1

* * *

# methodNotes: Serum carnitine at 12 weeks in adult mice fed L-carnitine, acetyl carnitine or γ-butyrobetaine
# Design: species or system mouse (BALB/c male)
# conditionsUsed: mouse, in vivo, po, 50 mg/kg/day, 12 wks; read-out: Serum carnitine, Total
measurementType: concentration at 2016 h (µM)
The answer is to be given in µM; state only the numeric part.

The recorded concentration at 2016 h for entry CC(=O)O[C@H](CC(=O)[O-])C[N+](C)(C)C [acetyl L-carnitine, acetylcarnitine, reference compound] equals 59.6

* * *

Each entry below carries its recorded concentration at 2016 h.
# methodNotes: Serum carnitine at 12 weeks in adult mice fed L-carnitine, acetyl carnitine or γ-butyrobetaine
# Parameters: species or system mouse (BALB/c male)
# conditionsUsed: mouse, in vivo, po, 100 mg/kg/day, Serum carnitine, Free
The answer is to be given in µM; state only the numeric part.

- C[N+](C)(C)C[C@H](O)CC(=O)[O-] [L-carnitine]: 41.6

Now look at this one.
The recorded concentration at 2016 h for entry C[N+](C)(C)CCCC(=O)[O-] [γ-butyrobetaine, 4-trimethylamino butyrate] equals 40.4

The origin of these recorded values is patent US5240961A.
